target_entity: Recombinant Human Anaplastic Lymphoma Kinase (Homo sapiens, UniProt Q9UM73)
Construct: purchased Invitrogen, Carlsbad, Calif
Sequence (Q9UM73 19-1620): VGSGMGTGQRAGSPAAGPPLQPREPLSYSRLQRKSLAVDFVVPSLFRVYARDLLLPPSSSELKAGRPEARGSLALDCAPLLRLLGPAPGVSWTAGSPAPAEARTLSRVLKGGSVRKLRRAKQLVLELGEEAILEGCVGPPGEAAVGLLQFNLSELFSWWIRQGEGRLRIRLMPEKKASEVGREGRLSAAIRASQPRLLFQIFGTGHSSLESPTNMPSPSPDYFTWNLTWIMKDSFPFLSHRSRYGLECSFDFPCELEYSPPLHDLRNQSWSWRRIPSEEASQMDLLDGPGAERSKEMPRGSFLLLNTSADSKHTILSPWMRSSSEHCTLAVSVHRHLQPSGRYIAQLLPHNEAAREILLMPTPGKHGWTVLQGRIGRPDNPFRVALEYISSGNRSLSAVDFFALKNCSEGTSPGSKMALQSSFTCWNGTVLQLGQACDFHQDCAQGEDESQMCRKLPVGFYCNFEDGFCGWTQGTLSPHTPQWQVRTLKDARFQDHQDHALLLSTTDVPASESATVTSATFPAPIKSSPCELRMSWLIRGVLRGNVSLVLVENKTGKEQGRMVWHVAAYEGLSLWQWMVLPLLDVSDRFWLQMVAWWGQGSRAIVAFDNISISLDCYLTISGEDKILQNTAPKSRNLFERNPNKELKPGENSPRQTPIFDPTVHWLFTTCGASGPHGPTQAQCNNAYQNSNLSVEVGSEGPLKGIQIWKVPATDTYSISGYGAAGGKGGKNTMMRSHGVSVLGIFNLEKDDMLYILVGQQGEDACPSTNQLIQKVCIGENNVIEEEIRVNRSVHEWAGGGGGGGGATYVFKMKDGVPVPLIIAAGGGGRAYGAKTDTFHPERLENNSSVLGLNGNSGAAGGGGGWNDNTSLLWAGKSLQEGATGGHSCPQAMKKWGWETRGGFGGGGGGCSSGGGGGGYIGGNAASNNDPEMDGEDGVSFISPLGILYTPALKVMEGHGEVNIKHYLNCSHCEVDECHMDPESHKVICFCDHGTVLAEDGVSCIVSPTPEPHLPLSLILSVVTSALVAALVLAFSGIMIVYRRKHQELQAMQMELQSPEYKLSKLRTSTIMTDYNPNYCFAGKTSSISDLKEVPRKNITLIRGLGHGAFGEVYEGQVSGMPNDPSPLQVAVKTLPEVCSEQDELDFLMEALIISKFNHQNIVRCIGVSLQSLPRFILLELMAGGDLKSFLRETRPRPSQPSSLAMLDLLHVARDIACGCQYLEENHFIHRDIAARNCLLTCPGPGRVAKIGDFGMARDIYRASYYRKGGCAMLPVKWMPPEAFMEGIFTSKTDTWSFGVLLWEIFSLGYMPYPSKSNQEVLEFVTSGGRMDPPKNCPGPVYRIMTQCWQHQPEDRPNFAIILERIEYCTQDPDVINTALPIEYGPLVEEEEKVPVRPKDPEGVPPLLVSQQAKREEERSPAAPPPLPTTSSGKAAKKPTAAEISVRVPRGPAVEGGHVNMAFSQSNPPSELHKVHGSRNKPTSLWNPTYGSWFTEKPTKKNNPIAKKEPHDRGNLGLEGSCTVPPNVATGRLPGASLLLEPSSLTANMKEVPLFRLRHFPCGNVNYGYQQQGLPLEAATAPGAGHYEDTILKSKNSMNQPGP
test: ALK HTRF kinase assay
Type: biochemical
experimental_context: compound at 500 nM or 1 mM; 90 μM ATP
reported_metric: ALK % of inhibition at a concentration of 500 nM or 1 mM (%)

• N#Cc1ccc(S(=O)(=O)N2CCC(CC(=O)Nc3ccc4cc3CCc3cncc(c3)Nc3ncc(Cl)c(n3)N4)CC2)cc1 [Example A199, bis(trifluoroacetate)] = 41

P: O=C(CC1CCN(C(=O)Nc2ccccc2F)CC1)Nc1ccc2cc1CCc1cncc(c1)Nc1ncc(Cl)c(n1)N2 [Example A146, bis(trifluoroacetate)]
Q: O=C(CC1CCN(c2ccnc(F)c2)CC1)Nc1ccc2cc1CCc1cncc(c1)Nc1ncc(Cl)c(n1)N2 [Example A244, tris(trifluoroacetate)]
R: Cc1cccc(N2CCC(CC(=O)Nc3ccc4cc3CCc3cncc(c3)Nc3ncc(Cl)c(n3)N4)CC2)c1C#N [Example A236, tris(trifluoroacetate)]
Provide the items ranked by increasing ALK % of inhibition at a concentration of 500 nM or 1 mM. Answer format: the labels, in the requested order.
R, P, Q
(R: 16%, P: 34%, Q: 66%)

src = patent US8871753B2
